These data points were gathered from patent US20250027068.

target: pooled human IgG (human IgG1,2,3 and 4)
For each entry below, report its Enzyme activity endpoint: IgG value.
Numbers only, in ng/µL.

| protein | measureName | valueUnits | observedValue |
| --- | --- | --- | --- |
| PRT-680 (protein) MQITSVWTKGVTPLTPEQFRYNNEDVIHAPYLPHQGWYDITKAFDGKDNLLCGAATAGNMLHWWFDQNKTEIEAYLSKHPEKQKIIFNNQELFDLRAAINTKDSQTNSALFNYFRDKAFPNLSARQLGVMPDLVLDMFINGYYLNVFKTQSTDVNRPYQDKDKRGGIFDAVFTRGDQTTLLTARHDLKNKGLNDISTIIKQELTEGKALALSHTYANVSISHVINLWGADFNAEGNLEAIYVTDSDANASIGMKKYYVGINAHGHVAISAKKIEGENIGAQVLGLFTLSSGKDIWQKLSLEHHHHHH | Enzyme activity endpoint: IgG | ng/µL | 0 |

In: I'd like to know its Enzyme activity endpoint: IgG. The protein in question is PRT-674 (protein) MQITSVWTKGVTPPTMEQFRYNNYDVFHAPYLPGQGWYDITKAFDGGDNLLCGAATAGNMLHWWFDQNKEEIEAYLSKYPEKQKIIFNNQELFDLRKAINSKDSQTNSELFNYFRDKAFGNLSARQKGVMPDLVLDMFINGYYLNLNKTQSTDVNRPYQDPDKRGGIFDDVFKEGDQTKLLTARHDLSNGGLDDISTIIKQELQSGRALALSHTYANVSYSHVINLWGADFDAEGNLEAIYVTDSDDDQSIGMKKYKVGKNASGHVRISAKKIEDENIGAQVLGLFTLSLGKEIWQKLSLEHHHHHH
Out: 891
